B1: TRIM14 (parent)
chain: REQADSCREQLDIMNDLSNRVWSI

- Variants of: B1
- measurement.description: protein stability index of a GFP-peptide fusion (GPS, HEK-293T) (PSI 1-6); higher = more stable;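 also: lentivirally expressed fusions sorted by FACS into six bins by GFP to DsRed ratio, PSI derived from sequencing read proportions per bin multiplied by bin number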
- measurement.conditions: c terminus: a fixed tail appended
Could you label it Met if measured protein stability index is 2 or higher, and Not met otherwise?

Answer whether protein stability index of `D16E` is greater than or equal to 2.
Met

Answer whether protein stability index of `D16R` is greater than or equal to 2.
Met

Answer whether protein stability index of `D16C` is greater than or equal to 2.
Not met

Answer whether protein stability index of `D16F` is greater than or equal to 2.
Not met

Answer whether protein stability index of `D16L` is greater than or equal to 2.
Not met

Answer whether protein stability index of `D16N` is greater than or equal to 2.
Not met

Answer whether protein stability index of `D16P` is greater than or equal to 2.
Not met

Answer whether protein stability index of `D16H` is greater than or equal to 2.
Not met

Answer whether protein stability index of `D16S` is greater than or equal to 2.
Met

Answer whether protein stability index of `D16K` is greater than or equal to 2.
Met

Answer whether protein stability index of `D16M` is greater than or equal to 2.
Not met

Answer whether protein stability index of `D16G` is greater than or equal to 2.
Met

Answer whether protein stability index of `D16Q` is greater than or equal to 2.
Met

Answer whether protein stability index of `D16A` is greater than or equal to 2.
Met

Answer whether protein stability index of `D16I` is greater than or equal to 2.
Not met

Answer whether protein stability index of `D16V` is greater than or equal to 2.
Not met
